All values here come from patent US20260144882A1.

Would you kindly list koff for each of these binders?
- studySystem: T1, human Nectin-4 extracellular antigen hNectin-4-His (human, UniProt Q96NY8 32-349)
- T1 construct: C-terminal 8xHis tag included
- T1 sequence: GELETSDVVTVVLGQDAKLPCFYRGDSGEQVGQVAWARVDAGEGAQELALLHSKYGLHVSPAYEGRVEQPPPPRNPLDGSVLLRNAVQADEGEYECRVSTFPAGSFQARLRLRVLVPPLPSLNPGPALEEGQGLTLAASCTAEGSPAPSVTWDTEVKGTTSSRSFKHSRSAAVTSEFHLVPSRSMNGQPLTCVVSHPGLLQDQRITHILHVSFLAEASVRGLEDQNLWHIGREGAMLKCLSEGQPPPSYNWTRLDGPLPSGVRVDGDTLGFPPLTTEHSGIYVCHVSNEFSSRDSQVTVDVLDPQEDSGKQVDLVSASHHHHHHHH
- assayExplanation: SPR, antibody on Protein A chip, 1:1 fit
Unit s⁻¹ implied. Number only.

Please list koff recorded for the binder antibody 1F3-1G11 (antibody, human IgG1, kappa, V domains shown) VH: EVQLVESGGGLVQPGGSLRLSCAASGYSFTGYGMSWVRQAPGKGLEWVSGISPSGGTIGYADSVKGRFTISRDNSKNTLYLQMNSLRAEDTAVYYCARAELLAFDVYTASDYWGQGTLVTVSS VL: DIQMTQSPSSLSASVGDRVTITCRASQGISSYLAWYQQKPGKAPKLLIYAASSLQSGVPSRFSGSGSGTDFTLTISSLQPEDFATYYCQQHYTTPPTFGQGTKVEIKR
0.00115

Specify reported koff for the binder shown: antibody 1F3-1E4 (antibody, human IgG1, kappa, V domains shown) VH: EVQLVESGGGLVQPGGSLRLSCAASGFSFGTYGMSWVRQAPGKGLEWVSRISGDSANIRYADSVKGRFTISRDNSKNTLYLQMNSLRAEDTAVYYCARAELLAFDVYTASDYWGQGTLVTVSS VL: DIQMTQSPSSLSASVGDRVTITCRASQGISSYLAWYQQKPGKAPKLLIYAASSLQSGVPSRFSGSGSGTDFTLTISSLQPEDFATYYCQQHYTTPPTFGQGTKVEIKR
0.000825

State, in one line, measured koff of antibody 1F3-1G7 (antibody, human IgG1, kappa, V domains shown) VH: EVQLVESGGGLVQPGGSLRLSCAASGDIFSNYSMSWVRQAPGKGLEWVSGIYPSGDSRRYADSVKGRFTISRDNSKNTLYLQMNSLRAEDTAVYYCARAELLAFDVYTASDYWGQGTLVTVSS VL: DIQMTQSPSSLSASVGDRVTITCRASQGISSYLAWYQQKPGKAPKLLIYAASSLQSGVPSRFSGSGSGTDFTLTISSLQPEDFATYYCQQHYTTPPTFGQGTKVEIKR
0.000596
